Parameter 'readout' = Ki; parameter 'system' = Adenosine receptor A2a (Rattus norvegicus).

{"molecule-smiles": "O=C(Nc1nc(-c2ccccc2)c(C(=O)c2ccc(F)cc2F)s1)c1ccco1", "system-tested": "Adenosine receptor A2a (Rattus norvegicus)", "Ki": "0.0733 µM"}

Batch lookup, Ki per entry.
1. Cc1ccc(-n2c(-c3sc(NC(=O)c4ccco4)nc3-c3ccccc3)nc3ccccc3c2=O)cc1
2. COc1ccc(C(=O)Nc2nc(-c3ccccc3)c(C(=O)c3ccc(OC)cc3)s2)cc1
3. COc1ccc(C(=O)Nc2nc(-c3ccccc3)c(C(=O)c3ccccc3)s2)cc1
4. O=C(Nc1nc(-c2ccccc2)c(-c2ccccn2)s1)c1ccccc1

[A]
["> 1 µM", "> 1 µM", "> 1 µM", "0.391 µM"]

Batch lookup, Ki per entry.
1. O=C(Nc1nc(-c2ccccc2)c(-c2nc3ccccc3c(=O)n2-c2ccc(Cl)cc2)s1)c1ccco1
2. CCCCn1c(=O)c2[nH]c(C34CC5CC(CC3C5)C4)nc2n(CCCO)c1=O
3. COc1ccc(C(=O)Nc2nc(-c3ccccc3)c(C(=O)c3ccc(C)cc3)s2)cc1

[A]
1: > 1 µM; 2: 0.552 µM; 3: > 1 µM

---

system-tested: Adenosine receptor A2a (Rattus norvegicus) (UniProt P30543)
Sequence (P30543 whole entry): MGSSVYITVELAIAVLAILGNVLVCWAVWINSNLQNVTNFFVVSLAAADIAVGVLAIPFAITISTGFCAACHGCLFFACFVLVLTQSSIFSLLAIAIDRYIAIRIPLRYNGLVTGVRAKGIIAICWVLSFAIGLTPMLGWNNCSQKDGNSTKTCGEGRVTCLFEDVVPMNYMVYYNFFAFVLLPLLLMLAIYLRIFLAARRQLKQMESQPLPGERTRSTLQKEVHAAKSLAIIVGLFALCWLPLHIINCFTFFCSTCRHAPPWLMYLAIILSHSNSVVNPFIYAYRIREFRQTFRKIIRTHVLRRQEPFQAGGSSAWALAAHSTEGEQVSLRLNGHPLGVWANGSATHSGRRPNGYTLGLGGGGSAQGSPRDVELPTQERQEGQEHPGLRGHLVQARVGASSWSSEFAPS
protocol-text: Displacement of [3H]MSX2 from adenosine receptor A2A in rat brain striatum membranes at 0.1 uM incubated for 30 mins by radioligand competition assay relative to control
assay-setup: Cell membrane
experimental-endpoint: inhibition (%)
Numbers only, in %.

{"molecule-smiles": "COc1ccc(C(=O)Nc2nc(-c3ccccc3)c(-c3nc4ccccc4c(=O)n3-c3ccc(OC)cc3)s2)cc1", "unit-name": "%", "inhibition": 1}
{"molecule-smiles": "COc1ccc(C(=O)Nc2nc(-c3ccccc3)c(C(=O)c3ccc(F)cc3F)s2)cc1", "unit-name": "%", "inhibition": 16}
{"molecule-smiles": "COc1ccc(C(=O)Nc2nc(-c3ccccc3)c(-c3nc4ccccc4c(=O)n3-c3ccccc3)s2)cc1", "unit-name": "%", "inhibition": 1}
{"molecule-smiles": "O=C(Nc1nc(-c2ccccc2)c(-c2nc3ccccc3c(=O)n2-c2ccc(Cl)cc2)s1)c1ccco1", "unit-name": "%", "inhibition": 14}

Batch lookup, inhibition per entry.
1. COc1ccc(C(=O)Nc2nc(-c3ccccc3)c(C(=O)c3ccc(C)cc3)s2)cc1
2. O=C(Nc1nc(-c2ccccc2)c(-c2nc3ccccc3c(=O)n2-c2ccccc2)s1)c1ccccc1
3. Cc1ccc(-n2c(-c3sc(NC(=O)c4ccccc4)nc3-c3ccccc3)nc3ccccc3c2=O)cc1
4. COc1ccc(C(=O)Nc2nc(-c3ccccc3)c(C(=O)c3ccc(OC)cc3)s2)cc1
5. O=C(Nc1nc(-c2ccccc2)c(-c2nc3ccccc3c(=O)n2-c2ccccc2)s1)c1ccco1
6. COc1ccc(C(=O)Nc2nc(-c3ccccc3)c(-c3nc4ccccc4c(=O)n3-c3ccc(C)cc3)s2)cc1
7. COc1ccc(C(=O)Nc2nc(-c3ccccc3)c(C(=O)c3ccccc3)s2)cc1

[A]
1. 15
2. 3
3. 17
4. 16
5. 33
6. 15
7. 32

---

system-tested: Adenosine receptor A1 (Rattus norvegicus, UniProt P25099)
Sequence (P25099 whole entry): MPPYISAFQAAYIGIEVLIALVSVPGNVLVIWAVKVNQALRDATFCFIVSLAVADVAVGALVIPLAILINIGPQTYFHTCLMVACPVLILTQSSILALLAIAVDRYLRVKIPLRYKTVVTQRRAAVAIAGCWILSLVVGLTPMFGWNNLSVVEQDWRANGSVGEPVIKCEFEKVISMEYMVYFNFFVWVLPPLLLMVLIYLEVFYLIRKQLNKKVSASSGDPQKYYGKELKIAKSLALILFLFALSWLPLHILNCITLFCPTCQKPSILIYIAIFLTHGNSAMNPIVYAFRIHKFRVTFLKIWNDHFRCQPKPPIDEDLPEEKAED
protocol-text: Displacement of [3H]CCPA from rat adenosine receptor A1 by radioligand competition assay
For each of the compounds below, state its pKi.
Give bare numbers, as −log10 of the molar value.

Batch lookup, pKi per entry.
1. COc1ccc(C(=O)Nc2nc(-c3ccccc3)c(C(=O)c3ccc(C)cc3)s2)cc1
2. Cc1ccc(C(=O)c2sc(NC(=O)c3ccco3)nc2-c2ccccc2)cc1
3. O=C(Nc1nc(-c2ccccc2)c(C(=O)c2ccc(F)cc2F)s1)c1ccccc1
4. O=C(Nc1nc(-c2ccccc2)c(C(=O)c2ccc(Cl)cc2)s1)c1ccccc1

[A]
1: 9.28; 2: 9.46; 3: 8.55; 4: 9.03

---

system-tested: Adenosine receptor A2b (Homo sapiens)
protocol-text: Displacement of [3H]PSB-603 from human adenosine receptor A2B expressed in CHO cell membranes at 0.1 uM incubated for 75 mins by radioligand competition assay relative to control
assay-setup: Cell membrane
experimental-endpoint: inhibition (%)
One number for each entry, in %.

{"molecule-smiles": "O=C(Nc1nc(-c2ccccc2)c(C(=O)c2ccc(F)cc2F)s1)c1ccco1", "inhibition [%]": 15}

Batch lookup, inhibition per entry.
1. O=C(Nc1nc(-c2ccccc2)c(-c2nc3ccccc3c(=O)n2-c2ccccc2)s1)c1ccco1
2. O=C(Nc1nc(-c2ccccc2)c(-c2nc3ccccc3c(=O)n2-c2ccc(Cl)cc2)s1)c1ccco1
3. COc1ccc(C(=O)Nc2nc(-c3ccccc3)c(-c3nc4ccccc4c(=O)n3-c3ccc(C)cc3)s2)cc1
4. COc1ccc(C(=O)Nc2nc(-c3ccccc3)c(C(=O)c3ccc(F)cc3F)s2)cc1

[A]
1: 1; 2: 1; 3: 2; 4: 0

Batch lookup, inhibition per entry.
1. O=C(Nc1nc(-c2ccccc2)c(-c2nc3ccccc3c(=O)n2-c2ccc(Cl)cc2)s1)c1ccccc1
2. Cc1ccc(C(=O)c2sc(NC(=O)c3ccco3)nc2-c2ccccc2)cc1
3. COc1ccc(-n2c(-c3sc(NC(=O)c4ccco4)nc3-c3ccccc3)nc3ccccc3c2=O)cc1
4. COc1ccc(C(=O)Nc2nc(-c3ccccc3)c(C(=O)c3ccccc3)s2)cc1

[A]
12
2
30
2

---

Parameter 'readout' = pKi; parameter 'system' = Adenosine receptor A1 (Homo sapiens, UniProt P30542).
Answers are plain numbers, as −log10 of the molar value.

Consider the following illustrative entries.
{"molecule-smiles": "Cc1ccc(C(=O)c2sc(NC(=O)c3ccco3)nc2-c2ccccc2)cc1", "value-reported": 8.12}
{"molecule-smiles": "O=C(Nc1nc(-c2ccccc2)c(C(=O)c2ccc(F)cc2F)s1)c1ccccc1", "value-reported": 7.26}
{"molecule-smiles": "O=C(Nc1nc(-c2ccccc2)c(C(=O)c2ccc(F)cc2F)s1)c1ccco1", "value-reported": 6.75}

Proceed to the following item.
Reported pKi for O=C(Nc1nc(-c2ccccc2)c(C(=O)c2ccc(Cl)cc2)s1)c1ccccc1 was 7.61

---

system-tested: Adenosine receptor A2a (Rattus norvegicus) (UniProt P30543)
protocol-text: Displacement of [3H]MSX2 from adenosine receptor A2A in rat brain striatum membranes at 0.1 uM incubated for 30 mins by radioligand competition assay relative to control
assay-setup: Cell membrane
For each of the compounds below, state its inhibition.
One number for each entry, in %.

Consider the following illustrative entries.
{"molecule-smiles": "Cc1ccc(-n2c(-c3sc(NC(=O)c4ccco4)nc3-c3ccccc3)nc3ccccc3c2=O)cc1", "system-tested": "Adenosine receptor A2a (Rattus norvegicus) (UniProt P30543)", "value-reported": 6}
{"molecule-smiles": "COc1ccc(C(=O)Nc2nc(-c3ccccc3)c(C(=O)c3ccc(Cl)cc3)s2)cc1", "system-tested": "Adenosine receptor A2a (Rattus norvegicus) (UniProt P30543)", "value-reported": 12}
{"molecule-smiles": "COc1ccc(-n2c(-c3sc(NC(=O)c4ccccc4)nc3-c3ccccc3)nc3ccccc3c2=O)cc1", "system-tested": "Adenosine receptor A2a (Rattus norvegicus) (UniProt P30543)", "value-reported": 17}

Proceed to the following item.
Reported inhibition for O=C(Nc1nc(-c2ccccc2)c(-c2nc3ccccc3c(=O)n2-c2ccc(Cl)cc2)s1)c1ccccc1 was 7

---

Protein target, amino acids: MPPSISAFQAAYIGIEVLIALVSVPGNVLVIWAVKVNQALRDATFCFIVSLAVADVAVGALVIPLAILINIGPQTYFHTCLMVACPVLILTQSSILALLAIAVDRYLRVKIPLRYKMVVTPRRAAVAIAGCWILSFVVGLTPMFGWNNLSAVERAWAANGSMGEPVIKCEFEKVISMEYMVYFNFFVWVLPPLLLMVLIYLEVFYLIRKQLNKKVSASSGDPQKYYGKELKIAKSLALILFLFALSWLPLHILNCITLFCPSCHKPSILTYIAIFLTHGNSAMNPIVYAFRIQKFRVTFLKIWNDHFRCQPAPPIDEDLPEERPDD
pKi: −log10 of the molar value.
For each of the molecules below, state its pKi.

Consider the following illustrative entries.
{"molecule-smiles": "Cc1ccc(-n2c(-c3sc(NC(=O)c4ccccc4)nc3-c3ccccc3)nc3ccccc3c2=O)cc1", "value-reported": "< 6.00"}
{"molecule-smiles": "O=C(Nc1nc(-c2ccccc2)c(-c2nc3ccccc3c(=O)n2-c2ccccc2)s1)c1ccco1", "value-reported": "< 6.00"}
{"molecule-smiles": "CCCOC(=O)c1c(-c2ccccc2)nc(CC)c(C(=O)SCC)c1CCC", "value-reported": "< 5.00"}

Proceed to the following item.
Reported pKi for Cc1ccc(-n2c(-c3sc(NC(=O)c4ccco4)nc3-c3ccccc3)nc3ccccc3c2=O)cc1 was < 6.00
